Just for reference, ChEMBL document CHEMBL2169772 is where these values come from.

Test: Tmax in Swiss nude mouse at 10 mg/kg, po by LC-ESI-MS/MS method
Type: ADME, organism-based
Parameters: dose 10 mg/kg, route oral
Details: in vivo
Entries and their measured Tmax follow.
Quantity name: Tmax (min)

Molecule: Nc1ncnc2c1nc(Sc1cc3c(cc1Br)OCO3)n2CCC1CCN(C=O)CC1
Unit of measurement: min
Reported result: 60
//
Molecule: C[C@H](O)C(=O)N1CCC(CCn2c(Sc3cc4c(cc3Br)OCCO4)nc3c(N)ncnc32)CC1
Unit of measurement: min
Reported result: 30
//
Molecule: Nc1ncnc2c1nc(Sc1cc3c(cc1Br)OCCO3)n2CCC1CCN(C(=O)CO)CC1
Unit of measurement: min
Reported result: 15
//
Molecule: Nc1ncnc2c1nc(Sc1cc3c(cc1Br)OCO3)n2CCC1CCN(C(=O)CO)CC1
Unit of measurement: min
Reported result: 15
//
Molecule: C[C@H](O)C(=O)N1CCC(CCn2c(Sc3cc4c(cc3Br)OCO4)nc3c(N)ncnc32)CC1
Unit of measurement: min
Reported result: 15
//
Molecule: Nc1ncnc2c1nc(Sc1cc3c(cc1Br)OCCO3)n2CCC1CCN(C=O)CC1
Unit of measurement: min
Reported result: 60
//
Molecule: C[C@@H](O)C(=O)N1CCC(CCn2c(Sc3cc4c(cc3Br)OCCO4)nc3c(N)ncnc32)CC1
Unit of measurement: min
Reported result: 60
//
Molecule: C[C@@H](O)C(=O)N1CCC(CCn2c(Sc3cc4c(cc3Br)OCO4)nc3c(N)ncnc32)CC1
Unit of measurement: min
Reported result: 15
//
Molecule: Nc1ncnc2c1nc(Sc1cc3occc3cc1Br)n2CCC1CCN(C=O)CC1
Unit of measurement: min
Reported result: 30

###

System: A549
Experiment: Cytotoxicity against human A549 cells assessed as inhibition of tumor growth incubated for 72 hrs by luminometry
Type: functional, cell-based
Conditions: A549, 72 h

Molecule: C[C@H](O)C(=O)N1CCC(CCn2c(Sc3cc4c(cc3Br)OCO4)nc3c(N)ncnc32)CC1
IC50 / nM: 770

###

The entries below come with measured log10(IC50) values attached.
Molecular target: Heat shock protein HSP90 (Homo sapiens, UniProt P07900+P08238)
Test: Inhibition of human HSP90 in HCT116 cells expressing Her2 gene assessed as degradation of Her2 after 4 hrs by luciferase reporter gene assay
Format: cell-based
Conditions: hct-116
Quantity name: log10(IC50) (log10 of the value in nM)

Molecule: Nc1ncnc2c1nc(Sc1cc3c(cc1Br)OCO3)n2CCC1CCN(C=O)CC1
log10(IC50): 1.85
--
Molecule: C[C@H](O)C(=O)N1CCC(CCn2c(Sc3cc4c(cc3Br)OCO4)nc3c(N)ncnc32)CC1
log10(IC50): 1.78
--
Molecule: Nc1ncnc2c1nc(Sc1cc3c(cc1Br)OCO3)n2CCC1CCNCC1
log10(IC50): 2.98
--
Molecule: CC(C)N1CCC(CCn2c(Sc3cc4c(cc3Br)OCO4)nc3c(N)ncnc32)CC1
log10(IC50): 2.51
--
Molecule: C[C@@H](O)C(=O)N1CCC(CCn2c(Sc3cc4c(cc3Br)OCO4)nc3c(N)ncnc32)CC1
log10(IC50): 1.95

###

Below: a set of entries, each annotated with reported IC50.
Biological target: Heat shock protein HSP90 (Homo sapiens, UniProt P07900+P08238)
Experiment: Inhibition of human HSP90 using BODIPY labelled geldanamycin as substrate by fluorescence polarization assay
Format: protein assay

Molecule: Nc1ncnc2c1nc(Sc1cc3c(cc1Br)OCO3)n2CCC1CCN(C(=O)C2CCCC2)CC1
Measurement qualifier: =
IC50 / µM: 0.25
--
Molecule: CC(=O)C(=O)N1CCC(CCn2c(Sc3cc4c(cc3Br)OCO4)nc3c(N)ncnc32)CC1
Measurement qualifier: =
IC50 / µM: 0.11
--
Molecule: CN1CCOc2cc(Sc3nc4c(N)ncnc4n3CCC3CCN(C=O)CC3)c(Br)cc21
Measurement qualifier: =
IC50 / µM: 0.065
--
Molecule: CC(C)(O)C(=O)N1CCC(CCn2c(Sc3cc4c(cc3Br)OCO4)nc3c(N)ncnc32)CC1
Measurement qualifier: >
IC50 / µM: 5
--
Molecule: Nc1ncnc2c1nc(Sc1cc3c(cc1Br)OCO3)n2CCC1CCC(F)(F)CC1
Measurement qualifier: =
IC50 / µM: 1
--
Molecule: CC(C)C[C@H](N)C(=O)N1CCC(CCn2c(Sc3cc4c(cc3Br)OCO4)nc3c(N)ncnc32)CC1
Measurement qualifier: =
IC50 / µM: 0.068
--
Molecule: Nc1ncnc2c1nc(Sc1cc3c(cc1Br)OCO3)n2CCC1CCN(CC2CCCCC2)CC1
Measurement qualifier: =
IC50 / µM: 0.24
--
Molecule: CC(C)(C)n1nnnc1N1CCC(CCn2c(Sc3cc4c(cc3Br)OCO4)nc3c(N)ncnc32)CC1
Measurement qualifier: =
IC50 / µM: 1.8
--
Molecule: Cn1nnnc1N1CCC(CCn2c(Sc3cc4c(cc3Br)OCO4)nc3c(N)ncnc32)CC1
Measurement qualifier: =
IC50 / µM: 0.045
